MIC reference
- System: Staphylococcus aureus
- Test Method Notes: Broth two-fold serial dilution MIC test
- Assay type: cell-based, Staphylococcus aureus (ATCC 6538)
- Condition Description: Staphylococcus aureus, Table 2; Saur; TSB media; read-out: MIC
Reply with just the number (in µg/mL).

Record "CCCCCCCCCC[N+]1(CC#CI)CCOCC1" . Reported MIC: 8

Record "CCCCCCCCCCCCCCCCCC[N+]1(CC#CI)CCCC1" . Reported MIC: 1

Record "CCCCCCCCCCCCCC[N+]1(CC#CI)CCCC1" . Reported MIC: 0.5

Record "CCCCCCCCCCCCCCCC[N+]1(CC#CI)CCCCCC1" . Reported MIC: 4

Record "CCCCCCCC[N+]1(CC#CI)CCCC1" . Reported MIC: 16

Record "CCCCCCCCCCCCCCCC[N+]1(CC#CI)CCOCC1" . Reported MIC: 0.5

Record CCCCCCCCCCCCCC[N+]1(CC#CI)CC(C)OC(C)C1 (centres unmarked) . Reported MIC: 0.5

Record "OCCCCCCCCCCCC[N+]1(CC#CI)CCCC1" . Reported MIC: 32

Record "OCCCCCCCC[N+]1(CC#CI)CCCCC1" . Reported MIC: 250
